- TARGET OF ASSAY: T1, SARS-CoV-2 spike receptor-binding domain (RBD) (SARS-CoV-2, Wuhan-Hu-1, UniProt P0DTC2)
- T1 construct: also called SARS-CoV-2 RBD
- PROCEDURE SUMMARY: SPR; array SPR (Carterra LSA), HC200M chip; IgG captured on immobilised anti-human Fc; antigen as analyte in a 7-point series, RBD 300 nM to 411 pM or trimer 100 nM to 137 pM, in 1x HBSTE with 0.5 mg/mL BSA; association 5 min, dissociation 11 min; one-site model; constants for the trimer are called avidities
- SETUP CONDITIONS: both partners purified

- BINDER: "selected anti-SARS-CoV-2 spike antibody F5 (antibody, V domains shown) VH: EVQLVQSGAEVKKPGASVKVSCKVSGYTFSNHAIHWVRQAPGKGLEWMGGINPNIGDTIYAQKFQGRVTMTEDTSTDTAYMELSSLKSEDTAVYYCARDGYSGYVEGMDVWGQGTTVTVSS VL: DIQMTQSPSSVSASVGDRVTITCRASQNIHSYLAWYQQKPGKAPKLLIYDTSKLQSGVPSRFSGSGSGTDFTLTISSLQPEDFANYYCHQYAAYPWTFGGGTKVEIK"
  binding result: "binds"
- BINDER: "selected anti-SARS-CoV-2 spike antibody C7 (antibody, V domains shown) VH: QVQLVQSGAEVKKPGASVKVSCKVSGYSFTNYAIHWVRQAPGKGLEWMGGITPYNADTIYAQKFQGRVTMTEDTSTDTAYMELSSLKSEDTAVYYCARDGGNWAAPYSMDVWGNGTLVTVSS VL: DIQMTQSPSSVSASVGDRVTITCRASHGISSYLAWYQQKPGKAPKLLIYDATIRATGVPSRFSGSGSGTDFTLTISSLQPEDFANYYCHQYATYPWTFGGGTKVEIK"
  binding result: "binds"
- BINDER: "selected anti-SARS-CoV-2 spike antibody F7 (antibody, V domains shown) VH: QVQLVQSGAEVKKPGASVKVSCKVSGYSFSTYTIHWVRQAPGKGLEWMGGINPYTGDTIYAQKFQGRVTMTEDTSTDTAYMELSSLKSEDTAVYYCARDGYSGYESSYYYYGMDVWGQGTTVTVSS VL: DIQMTQSPSSVSASVGDRVTITCRASQDIGNHLAWYQQKPGKAPKLLIYASSNLASGVPSRFSGSGSGTDFTLTISSLQPEDFANYYCHQYATYPWTFGGGTKVEIK"
  binding result: "binds"
